Please go through the items and note down their Quantum yield of free probe.
assay: Fluorescence of free probe prior to binding to a protein tag; format: physicochemical

Recorded Quantum yield of free probe for N#C/C(=C\c1cc2c3c(c1)CCCN3CCC2)C(=O)NCc1ccc(COc2nc(N)nc3[nH]cnc23)cc1 [Reference Probe BG-CCVJ, reference compound] , please?
<0.001

Query CN(CCOC(=O)NCc1ccc(COc2nccc(N)n2)cc1)c1ccc(C2=C(C#N)C(=C(C#N)C#N)OC2(C)C)cc1 [probe 20] next
<0.001

Query CC1=CC(C)(C)N(CCOC(=O)NCc2ccc(COc3nccc(N)n3)cc2)c2ccc(/C=C(\C#N)C(=O)OC(C)(C)C)cc21 [probe 90] next
<0.001

Query N#C/C(=C\c1ccc2c(c1)SCCN2CCOC(=O)NCc1ccc(COc2nc(N)nc3[nH]cnc23)cc1)c1nc2ccccc2s1 [probe 86] next
<0.001

Query CN(CCOC(=O)NCc1ccc(COc2nccc(N)n2)cc1)c1cc2sc(/C=C(\C#N)c3nc4ccccc4s3)cc2s1 [probe 29] next
<0.001

Query CN(CCOC(=O)NCc1ccc(COc2nc(N)nc3[nH]cnc23)cc1)c1ccc2c(c1)sc1cc(/C=C(/C#N)C(=O)OC(C)(C)C)sc12 [probe 63] next
0.0015

Query CC(C)(C)OC(=O)/C(C#N)=C/c1cc2ccc(N(CCO)CCOC(=O)NCc3ccc(COc4nc(N)nc5[nH]cnc45)cc3)cc2s1 [probe 37] next
0.0012

Query CN(CCOC(=O)NCc1ccc(COc2nc(N)nc3[nH]cnc23)cc1)c1cc2sc3cc(/C=C(\C#N)C(=O)OC(C)(C)C)sc3c2s1 [probe 60] next
0.0011

Query CN(CCOC(=O)NCc1ccc(COc2nc(N)nc3[nH]cnc23)cc1)c1ccc2nc(/C=C(\C#N)C(=O)OC(C)(C)C)sc2c1 [probe 51] next
<0.001

Query CN(CCOC(=O)NCc1ccc(COc2nc(N)nc3[nH]cnc23)cc1)c1ccc2nc(/C=C(\C#N)c3nc4ccccc4s3)sc2c1 [probe 55] next
<0.001

Query CN1C(=O)/C(=C\c2cc3ccc(N(C)CCOC(=O)NCc4ccc(COc5nc(N)nc6[nH]cnc56)cc4)cc3s2)N=C1c1ccccc1 [probe 42] next
0.0013

Query CN(CCOC(=O)NCc1ccc(COc2nc(N)nc3[nH]cnc23)cc1)c1cc2sc(/C=C(\C#N)C(=O)OC(C)(C)C)cc2s1 [probe 21] next
<0.001

Query CN(CCOC(=O)NCc1ccc(COc2cc(Cl)nc(N)n2)cc1)c1ccc(C2=C(C#N)C(=C(C#N)C#N)OC2(C)C)cc1 [probe 19] next
0.0012

Query CC1=N/C(=C/c2cc3ccc(N(C)CCOC(=O)NCc4ccc(COc5nc(N)nc6[nH]cnc56)cc4)cc3s2)C(=O)N1C [probe 41] next
0.0015

Query CN(CCOC(=O)NCc1ccc(COc2cc(Cl)nc(N)n2)cc1)c1cc2sc(/C=C(\C#N)c3nc4ccccc4o3)cc2s1 [probe 25] next
<0.001

Query CN(CCO)c1ccc2nc(/C=C(\C#N)C(=O)NCc3ccc(COc4nc(N)nc5[nH]cnc45)cc3)sc2c1 [Reference Probe 115, reference compound] next
<0.001

Query CN(CCO)c1ccc(-c2ccc(/C=C(\C#N)C(=O)NCc3ccc(COc4nc(N)nc5[nH]cnc45)cc3)s2)s1 [Reference Probe 121, reference compound] next
<0.001

Query CN(CCO)c1ccc(C#C/C=C(\C#N)C(=O)NCc2ccc(COc3nc(N)nc4[nH]cnc34)cc2)cc1 [Reference Probe 110, reference compound] next
<0.001

Query CN(CCOC(=O)NCc1ccc(COc2nc(N)nc3[nH]cnc23)cc1)c1ccc2nc(/C=C(\C#N)c3nc4ccccc4o3)oc2c1 [probe 46] next
<0.001

Just for reference, patent US11209437B2 is where these values come from.
